test system: SK-OV-3 ovarian; experiment: NCI tumour cell line growth inhibition, 48 h
Reported Property: TGI

{"columns": ["Compound", "Assay Target", "Reading"],
 "data": [
  ["c1cc2[se][se]c3c4cccc5[se][se]c(c(c1)c23)c54", "SK-OV-3 ovarian", "> 100 µM"],
  ["CN(C)c1ccc2[nH]c(O)c(C=Nc3ccc(S(N)(=O)=O)cc3)c2c1", "SK-OV-3 ovarian", "> 25 µM"],
  ["OCC1OC(O)C(N=Cc2ccc3c(c2)OCO3)C(O)C1O (stereo not given)", "SK-OV-3 ovarian", "> 100 µM"],
  ["O=C(NN1C(=O)/C(=C/c2ccc(Cl)cc2)N=C1c1ccccc1)c1c(Cl)c(Cl)c(Cl)c(Cl)c1-c1nc2ccccc2[nH]1", "SK-OV-3 ovarian", "> 100 µM"],
  ["Cn1c(Cc2ccccc2)nc2cc3ccccc3cc21", "SK-OV-3 ovarian", "> 100 µM"]
]}
